Measured values drawn from PubChem BioAssay AID977607 for this set.

Experiment: activators of glucose-dependent insulin secretion, dose response, cell-based, INS-1E, Gaussia luciferase, luminescence, cherry-pick, set 2 (AID 977607);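 note: 0% = median of the plate neutral control wells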
Settings: INS-1E GLuc insulin secretion reporter, 2-3 h, stronger effect = higher value; at 35 µM, 100% = signal doubled over neutral wells unless noted
About 460 (31%) of roughly 1,500 compounds were called active. Another 1% or so got no clear call; they are omitted. Not all results are given here. Potency and affinity values are given separately.

COMPOUND	max activation
O=C(Nc1nnc(-c2ccc(F)cc2)s1)C1CCN(S(=O)(=O)c2ccc(Cl)cc2)CC1	18.7% (inactive)
Cc1cc(C)cc(C(=O)NC(=S)Nc2ccc(-c3cc4ccccc4oc3=O)cc2)c1	14.9% (inactive)
Cc1cn(CC(C)C)c(=O)n(-c2ccccc2)c1=O	12.2% (inactive)
Cc1ccc(S(=O)(=O)N2CCN(C(=O)COC(=O)c3ccc(O)cc3)CC2)c(C)c1	-39.9% (inactive)
O=C(O)COc1ccc2c3c(c(=O)oc2c1)CCC3	-18% (inactive)
O=C(N/N=C/c1ccc2c(c1)OCO2)c1ccc(Cl)cc1Cl	-37.2% (inactive)
CC1CN(S(=O)(=O)c2cc(C(=O)NC(C)c3cccnc3)ccc2Cl)CC(C)O1 (stereo not drawn)	-33% (inactive)
COc1ccc2nc(CCN(C)C(=O)C3CCC(=O)N(Cc4cccc(F)c4)C3)[nH]c2c1 (stereo not drawn)	-20.4% (inactive)
CCOc1ccc2ccc(OCC)c(/C=N/n3cnnc3)c2c1	-33.7% (inactive)
CCc1cc2c(COC(=O)c3cccc(NS(C)(=O)=O)c3)cc(=O)oc2cc1O	-16.1% (inactive)
CCN1CCN(c2ccc(S(=O)(=O)N3CCCCC3)cc2NC(=O)c2cc3ccccc3o2)CC1	-44.3% (inactive)
O=C(c1cccs1)N(Cc1ccc(Cl)cc1)C1CCS(=O)(=O)C1 (stereo not drawn)	21.3% (inactive)
COCCNc1nc(NCCCN(C)C)c2sccc2n1	-23.1% (inactive)
O=C(Nc1nnc(-c2ccc(Cl)cc2)o1)NC1CCCCC1	-20.9% (inactive)

====

max activation for assorted molecules
Assay: activators of glucose-dependent insulin secretion, dose response, cell-based, INS-1E, Gaussia luciferase, luminescence, cherry-pick, set 2 (AID 977607);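 note: 0% = median of the plate neutral control wells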
Settings: INS-1E GLuc insulin secretion reporter, 2-3 h, stronger effect = higher value; at 35 µM, 100% = signal doubled over neutral wells unless noted
About 460 (31%) of roughly 1,500 compounds were called active. Inconclusive results (about 1%) are left out. These entries were drawn from the full list. Measured potencies and affinities stand elsewhere.

MOLECULE	max activation
Cc1ccccc1Nc1c(-c2ccncc2)nc2ccc(Cl)cn12	-30.7% (inactive)
COc1ccc(C(=O)NCC(=O)OCC(=O)Nc2sccc2C#N)cc1OC	24.5% (inactive)
CC(C)CCN1C(=O)CSCC1(C)C(=O)NC(C)C (stereo not given)	-10.4% (inactive)

====

Assay: activators of glucose-dependent insulin secretion, dose response, cell-based, INS-1E, Gaussia luciferase, luminescence, cherry-pick, set 2 (AID 977607);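 note: 0% = median of the plate neutral control wells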
Details: INS-1E GLuc insulin secretion reporter, 2-3 h, stronger effect = higher value; at 35 µM, 100% = signal doubled over neutral wells unless noted
In all, about 1,500 compounds went through this assay and about 460 (31%) were called active. Another 1% or so got no clear call; they are omitted. These entries were drawn from the full list. Measured potencies and affinities stand elsewhere.

COMPOUND	max activation
COc1ccc(/C=N/NS(=O)(=O)c2ccccc2)cc1OC	16.8% (inactive)
COc1ccc(Nc2nc(NCc3cccs3)nc3ccsc23)cc1OC	-40.6% (inactive)
COc1ccc(-c2[nH]c3ccccc3c2SCCN)cc1	-28.1% (inactive)
COc1ccc(CNC(=O)COC(=O)c2cc(C)nc3ccccc23)cc1	16.2% (inactive)
Cc1nnc2c(NCCC(C)C)nc3ccccc3n12	-15% (inactive)
O=c1[nH]c(CN2CCN(c3ccc(O)cc3)CC2)nc2scc(-c3ccc(Cl)cc3)c12	-25.6% (inactive)
c1ccc2c(N3CCCCC3)nc(N3CCCC3)nc2c1	34.7% (inactive)
CC1CCC(C(C)C)C(OCC(O)CNC(C)c2ccccc2)C1 (stereo not given)	35.2% (inactive)
CC1=C(C(=O)N2CCOCC2)CC(CC(=O)NCCCN(C)C)C(=O)N1CCCN1CCCC1=O (stereo not given)	-20.9% (inactive)
Nn1c(-c2ccccc2)cc(-c2ccccc2)cc1=O	27.3% (inactive)

====

Experiment: activators of glucose-dependent insulin secretion, dose response, cell-based, INS-1E, Gaussia luciferase, luminescence, cherry-pick, set 2 (AID 977607);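 note: 0% = median of the plate neutral control wells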
Details: INS-1E GLuc insulin secretion reporter, 2-3 h, stronger effect = higher value; at 35 µM, 100% = signal doubled over neutral wells unless noted
The whole screen tested about 1,500 compounds, of which about 460 (31%) were called active. Another 1% or so got no clear call; they are omitted. A selection follows. Measured potencies and affinities stand elsewhere.

COMPOUND	max activation
CC(=O)NCCc1nc2ccccc2n1CCOc1cccc(C)c1	-27.1% (inactive)
CCc1nc2c(OCc3ccccc3C)cccn2c1N(C)C(=O)c1ccco1	-25.5% (inactive)
Cc1cccc(C)c1-n1nnnc1C1(C)CCC(=O)N1Cc1cccs1 (stereo unspecified)	25.2% (inactive)
Cc1[nH]n(-c2ccc(Br)cc2)c(=O)c1/C=N/NC(=O)c1ccccc1	-37.8% (inactive)
COc1ccc(CCNC(=O)COC(=O)c2cncc(Br)c2)cc1OC	-19.1% (inactive)
CCn1c(=O)[nH]c(=O)c2c(N)c(C(=O)c3cc(F)ccc3F)sc21	27.3% (inactive)
COC(=O)COc1ccc(C)cc1-n1nc2ccccc2n1	22.5% (inactive)
CCc1nc2c(OCCC3CCCCC3)cccn2c1N(C)C(=O)c1ccco1	-35% (inactive)
COc1ccc2c(c1)C(C)(Cc1ccc(C(=O)c3ccccc3)cc1)C(=O)N2 (stereo unspecified)	-33.7% (inactive)

====

Assay: activators of glucose-dependent insulin secretion, dose response, cell-based, INS-1E, Gaussia luciferase, luminescence, cherry-pick, set 2 (AID 977607);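 note: 0% = median of the plate neutral control wells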
Settings: INS-1E GLuc insulin secretion reporter, 2-3 h, stronger effect = higher value; at 35 µM, 100% = signal doubled over neutral wells unless noted
The whole screen tested about 1,500 compounds, of which about 460 (31%) were called active. Not shown: some 1% with an inconclusive outcome. A selection follows. Potency and affinity values are given separately.

COMPOUND	max activation
CCOc1ccc(-c2nc(CSc3nnc(N)s3)cs2)cc1OC	23.2% (inactive)
O=C1c2[nH]nc(-c3ccccc3)c2C(c2ccccc2)N1c1ccccc1 (stereo unspecified)	-31.9% (inactive)
O=C(Nc1cccc(Cl)c1)c1cnn2cccnc12	29.7% (inactive)
N#Cc1c(-c2ccco2)cc(C2CC2)nc1N	25.6% (inactive)
